ASSAY_DETAILS: Pharmacokinetic parameter (AUC) was determined after administering 30 mg/kg of compound orally in rat no.6 belonging to phenotype EM (extensive metabolizer)
Type: ADME, organism-based
Set-up: dose 30 mg/kg, route oral
APPLIED_CONDITIONS: in vivo, po
REPORTED_ENDPOINT: AUC (ng·h/mL)

GIVEN_SMILES: COc1cc2ncnc(N3CCN(C(=O)Nc4ccc(C#N)cc4)CC3)c2cc1OC
MEAS_VALUE: 26300

----------
ASSAY_DETAILS: Maximum time of retention of orally administered compound (30 mg/kg) in rat no.6 belonging to phenotype EM (extensive metabolizer)
Format: ADME, organism-based
APPLIED_CONDITIONS: in vivo, po

GIVEN_SMILES: COc1cc2ncnc(N3CCN(C(=O)Nc4ccc(C#N)cc4)CC3)c2cc1OC
Tmax: 2 h
